Reported values of Z.LYZ.NS (standard z score) for individual entries
Tested on: ISC-enriched organoids
Assay: Primary screen, 384-well 2.5-D organoid differentiation (ENR+CD, 6 days): basal lysozyme secretion (LYZ.NS)
Assay type: cell-based, murine
Details: Dose 0.40 uM; primary screen
Metric: Z.LYZ.NS (standard z score)

> print(dat)
                                    compound           tested.system                       metric  meas.value
 1  CNC(=O)c1ccc2cc([C@@]3(O)CCn4cncc43)ccc2c1  ISC-enriched organoids  Z.LYZ.NS (standard z score)       1.585
 2  CCn1c(N)c(C(=O)NC)c(=O)c2ccc(C#C[C@@](C)(O)COC)nc21  ISC-enriched organoids  Z.LYZ.NS (standard z score)       0.774
 3                    N#CSc1cc(SC#N)c(N)nc1N  ISC-enriched organoids  Z.LYZ.NS (standard z score)       0.448
 4  CN1CCC(CNc2ccc3ncc(-c4cccc(OC(F)(F)F)c4)n3n2)CC1 [SGI-1776free base]  ISC-enriched organoids  Z.LYZ.NS (standard z score)       0.362
 5  Cc1nn(-c2ccccc2)c(C)c1/C=N/N1CCN(Cc2ccccc2)CC1  ISC-enriched organoids  Z.LYZ.NS (standard z score)       0.002
 6  COc1cc(OC)c(/C=C/S(=O)(=O)Cc2ccc(OC)c(NCC(=O)O)c2)c(OC)c1  ISC-enriched organoids  Z.LYZ.NS (standard z score)      −1.831
 7        Oc1ccc(Nc2nc(-c3ccc(Cl)cc3)cs2)cc1  ISC-enriched organoids  Z.LYZ.NS (standard z score)       1.906
 8  O=C(/C=C/c1ccccc1)NC(NC(=S)Nc1ccc(Cl)cc1)C(Cl)(Cl)Cl (stereo not drawn)  ISC-enriched organoids  Z.LYZ.NS (standard z score)       1.595
 9  COc1cc(Br)c(Nc2nc(-c3c(C)nc4ncccn34)cs2)c(Br)c1  ISC-enriched organoids  Z.LYZ.NS (standard z score)      −0.509
10  Cn1cnc2c(F)c(Nc3ccc(Br)cc3Cl)c(C(=O)NOCCO)cc21  ISC-enriched organoids  Z.LYZ.NS (standard z score)      −0.188
11     O=C1NC(=O)/C(=C/c2cccc(C(F)(F)F)c2)S1  ISC-enriched organoids  Z.LYZ.NS (standard z score)      −0.524
12  COc1ccc(C(=O)Nc2sc3c(c2C(N)=O)CCCC3)cc1OC  ISC-enriched organoids  Z.LYZ.NS (standard z score)       0.502
13  Cc1cc(Nc2ccc(NC(=O)c3ccc(Nc4ccnc5ccccc45)cc3)cc2)nc(N)n1  ISC-enriched organoids  Z.LYZ.NS (standard z score)       0.735
14  NC(=O)c1ccc(-c2nc(-c3ccccn3)c(-c3ccc4c(c3)OCO4)[nH]2)cc1  ISC-enriched organoids  Z.LYZ.NS (standard z score)       1.514
15  CC(C)[C@H](O)C(=O)N[C@@H](C)C(=O)N[C@@H]1C(=O)N(C)CCc2ccccc21  ISC-enriched organoids  Z.LYZ.NS (standard z score)      −0.181
